B1: CHCHD6 (parent)
chain: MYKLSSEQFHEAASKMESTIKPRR

Variants of: B1
measurement.description: protein stability index of a GFP-peptide fusion (GPS, HEK-293T) (PSI 1-6); higher = more stable;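 further: lentivirally expressed fusions sorted by FACS into six bins by GFP to DsRed ratio, PSI derived from sequencing read proportions per bin multiplied by bin number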
settings: c terminus: a fixed tail appended
Give protein stability index for every item shown.
Response field accepts a number only; no unit should be typed.

Entry MYKLSSEQFHEAAFKMESTIKPRR [S14F] : reported protein stability index = ?
3.05

Repeat with MYKLSSEQFHEAASKMESTIYPRR [K21Y]
2.33

Repeat with MYKLSSEQFHEAASKMESTIKYRR [P22Y]
3

Repeat with MYKLSHEQFHEAASKMESTIKPRR [S6H]
3.53

Repeat with MYMLSSEQFHEAASKMESTIKPRR [K3M]
3.7

Repeat with MYKLSSEQFHEAASKMEITIKPRR [S18I]
2.68

Repeat with MYKLSSEQFHEAASKMESRIKPRR [T19R]
3.88

Repeat with MYKLSSEQFHEAASKMESTGKPRR [I20G]
4.3

Repeat with CYKLSSEQFHEAASKMESTIKPRR [M1C]
3.59

Repeat with MYKLSSEQFHRAASKMESTIKPRR [E11R]
3.35

Repeat with MYKLSSEQFHEAASKMESTIFPRR [K21F]
3

Repeat with MYKLSSEQFHEAASKMSSTIKPRR [E17S]
3.71

Repeat with MYKLSSEQFHEAASKMESTIKPRQ [R24Q]
3.65

Repeat with MYKSSSEQFHEAASKMESTIKPRR [L4S]
4.06

Repeat with MYDLSSEQFHEAASKMESTIKPRR [K3D]
3.84

Repeat with MYKLSSEQFHEAASKMESTIKPYR [R23Y]
3.44

Repeat with MMKLSSEQFHEAASKMESTIKPRR [Y2M]
4.45

Repeat with MYKLSSEQFHEAASKMESTIKPLR [R23L]
2.91

Repeat with MYKLSSKQFHEAASKMESTIKPRR [E7K]
3.71

Repeat with MSKLSSEQFHEAASKMESTIKPRR [Y2S]
4.5

Repeat with MYKLRSEQFHEAASKMESTIKPRR [S5R]
3.94

Repeat with GYKLSSEQFHEAASKMESTIKPRR [M1G]
4.53

Repeat with MYKLSMEQFHEAASKMESTIKPRR [S6M]
3.74

Repeat with MYKLSSEQDHEAASKMESTIKPRR [F9D]
4.82

Repeat with MYKLSSEQFHEAASKMELTIKPRR [S18L]
3.4

Repeat with MCKLSSEQFHEAASKMESTIKPRR [Y2C]
3.53

Repeat with MYKISSEQFHEAASKMESTIKPRR [L4I]
3.18

Repeat with MYKLSSEQFHEAASGMESTIKPRR [K15G]
3.82

Repeat with MYKLSSEQFHEAAAKMESTIKPRR [S14A]
3.56

Repeat with MYKLSSEQFHEAASKMEETIKPRR [S18E]
3.71

Repeat with MYKLSSEQFHEAASKMESTIKPCR [R23C]
3.48

Repeat with MYPLSSEQFHEAASKMESTIKPRR [K3P]
4.17

Repeat with MYKLSSEQFHELASKMESTIKPRR [A12L]
2.92

Repeat with MYKLSGEQFHEAASKMESTIKPRR [S6G]
4.26

Repeat with MYKLSSEQFHEAASKMESMIKPRR [T19M]
3.72

Repeat with MYKLSSEQFHEAASKMESTIKPRM [R24M]
3.86

Repeat with MYKLSSEQFHKAASKMESTIKPRR [E11K]
3.69

Repeat with MYKLLSEQFHEAASKMESTIKPRR [S5L]
3.02

Repeat with MYKLSSEQFHEAASKMESTYKPRR [I20Y]
3.44

Repeat with MGKLSSEQFHEAASKMESTIKPRR [Y2G]
4.48

Repeat with MYKLSSECFHEAASKMESTIKPRR [Q8C]
2.96

Repeat with MYKLSSEQFHEAAMKMESTIKPRR [S14M]
3.47

Repeat with MYKLSVEQFHEAASKMESTIKPRR [S6V]
3.1

Repeat with MYKLSSEQFHEAASKMESTIKSRR [P22S]
4.03

Repeat with MYKLSSEQFHEAASKMEKTIKPRR [S18K]
3.58

Repeat with MYKLSSEQFDEAASKMESTIKPRR [H10D]
4.15

The measurements presented in this section are drawn from the supplement of paper PMC10567573.
